# Target or system: T1, RSV F subtype A, furin-cleaved ectodomain stabilized in the prefusion conformation (DS-Cav1) (Respiratory syncytial virus subtype A, UniProt P03420 26-524)
# T1 construct: extracellular domain; Trimeric soluble antigen; also called Prefusion subtype A
# Method: BLI, IgG on AHQ sensor, 100 nM antigen
Kindly state Kd for each of the entries shown.
I only need the number, in pM, no unit after it.

*Q* Look up Kd: ADI-18942 (antibody, V domains shown, full-length IgG from yeast; also called Antibody Number 295; Ab # 295) VH: QVQLQESGPGRVKPSQTLSLTCTVSGVSVTINDYYWTWLRQSPGKGLEWIGNIYNSGSTYQNPSLQSRVTMSVDTAKNHFSLKLTSVTAADTAVYYCARDLGTANNYYFGMDVWGLGTTVTVSS VL: EIVMTQSPATLSLSPGERATLSCRASQSVSTYLAWYQQKPGQAPRLLIYNGSNRVTGTPARFSGSGSGTDFTLTISSVEPEDFAVYYCQQRSNWPPYTFGQGTKVEIK
*A* 865

*Q* Look up Kd: ADI-18967 (antibody, V domains shown, full-length IgG from yeast; also called Antibody Number 315; Ab # 315) VH: QVQLVQSGAEVKKPGASVKVACKVSGSSLTELSIQWVRLPPGKRLEWLGAFDAEDGAPIYSPKFQGRVTMTEDRSTETAYMEVTSLRSEDTALYYCATPLPAGALDKWGQGTLVTVSS VL: DIQMTQSPSSLSASVGDRVTISCRASQTISRYLNWYQVKPGTAPKLLIYAASSLQTGVPSRFSASGSGADFTLTISSLQPEDFATYHCQQTYIIPYTFGQGTKVDIK
*A* 809

*Q* Look up Kd: ADI-18955 (antibody, V domains shown, full-length IgG from yeast; also called Antibody Number 306; Ab # 306) VH: EVQLVESGGGVVQSGRSLRLSCAASGFIFSDNGMHWVRQAPGKGLEWVAGIFYDGSNKQYADSVKGRFTISRDNSKNTLYLQMKSLRAEDTAVYYCARAPYDIWSGYCLDYWGQGTLVTVSS VL: DIQVTQSPATLSMSPGERATLSCRASQSVNNNLAWYQQRPGQAPRLLIYGASTRATGIPARFSGSGSETEFTLTISSLQSEDFAVYHCQQYSIWPQTFGQGTKVEIK
*A* 599
